Data credit: ChEMBL document CHEMBL1158167

The molecules listed here are annotated with their pKi.
target.or.system: D(2) dopamine receptor (Bos taurus, UniProt P20288)
Sequence (P20288 whole entry): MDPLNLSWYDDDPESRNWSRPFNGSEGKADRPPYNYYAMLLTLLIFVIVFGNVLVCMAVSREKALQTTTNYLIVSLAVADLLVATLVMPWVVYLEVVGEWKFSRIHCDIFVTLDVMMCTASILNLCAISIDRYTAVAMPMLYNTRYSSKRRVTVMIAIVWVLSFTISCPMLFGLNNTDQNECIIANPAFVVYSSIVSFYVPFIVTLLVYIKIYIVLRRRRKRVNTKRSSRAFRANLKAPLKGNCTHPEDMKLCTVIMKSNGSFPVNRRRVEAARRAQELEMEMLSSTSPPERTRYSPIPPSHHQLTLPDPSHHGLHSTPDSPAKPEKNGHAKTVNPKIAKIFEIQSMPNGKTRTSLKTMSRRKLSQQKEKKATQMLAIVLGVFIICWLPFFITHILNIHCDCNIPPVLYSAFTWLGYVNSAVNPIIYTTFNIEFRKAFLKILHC
assay.summary: Displacement of [3H]Spiperone from dopamine D2 receptor in bovine caudate nuclei synaptosomal membrane by liquid scintillation spectrometry
pKi: −log10 of the molar value.
endpoint.label: pKi

• Brc1cc(CCN2CCN(c3ccccc3)CC2)cc2[nH]cnc12 = 7.21
• Clc1ccccc1N1CCN(CCc2ccc3nc[nH]c3c2)CC1 = 7.22
• COc1ccccc1N1CCN(CCc2cc(Br)c3nc[nH]c3c2)CC1 = 9.25
